Conditions: buffer; pH 7.4; 200.0 µM
Assign class by solubility kinetic: not lower than 20 µg/mL means yes; lower than 20 µg/mL means no.

See these solved cases before continuing.
# compound, discrete label
measured = [
    ("CN(C)/C(=N\\S(=O)(=O)c1ccccc1)c1ccc(F)cc1", "yes"),
    ("Cc1ccc(CNC(=O)Nc2ccc(F)cc2)n1C", "yes"),
    ("Cc1ccnc(SC2CC(=O)N(c3ccc(Br)cc3)C2=O)n1 (stereo not given)", "yes"),
    ("OC(CNC1Cc2ccccc2C1)COc1ccc(F)cc1 (stereo not given)", "yes"),
    ("CC(=O)c1sc(=S)n(-c2ccccc2)c1C", "no"),
]

In: Is reported solubility kinetic greater than or equal to 20 µg/mL here: Cc1cccc(OCC(O)Cn2ccnc2C)c1 (stereo not given)
Out: yes

In: For this compound, is measured solubility kinetic 20 µg/mL or higher? C[C@H](NC(=O)c1cccc([N+](=O)[O-])c1)C(=O)OCC(=O)c1ccccc1Br
Out: yes

In: Quick check, solubility kinetic >= 20 µg/mL? O=C(NC(=S)Nc1cccnc1)c1cccs1
Out: no

In: Decide: is the reported value of solubility kinetic for O=C(NCc1ccc(Cl)c(Cl)c1)c1ccc2c(c1)OCO2 equal to or greater than 20 µg/mL?
Out: no

In: Evaluate COc1ccc(NC(=O)CSc2nccn2Cc2ccco2)c(OC)c1 : solubility kinetic at minimum 20 µg/mL?
Out: yes

In: Textbook exercise: given the entry CCCc1ccc(S(=O)(=O)NCC2CCCN2CC)cc1 (stereo not given) , state whether its solubility kinetic is greater than or equal to 20 µg/mL.
Out: yes

These measurements were taken from PubChem BioAssay AID1996.
